Data origin: ChEMBL document CHEMBL3301361

assay: physchem; details: octan-1-ol/water, pH 7.4, LogD7.4
Class field: derived from logD; ranges interval 1 (below 1), interval 2 (1 to below 3), interval 3 (3 or more)

>>> class_name("CCn1cc(C(=O)O)c(=O)c2cc(F)c(N3CCNC(C)C3)c(F)c21 (stereo not drawn)")
"interval 1"
>>> class_name("CC(=O)Nc1ccc(C(=O)Nc2ccccc2N)cc1")
"interval 1"
>>> class_name("COc1ccc(Cc2c(N)n[nH]c2N)cc1")
"interval 1"
>>> class_name("CC(C)C(NC(=O)Cn1c(-c2ccccc2)cc2c(=O)n(CCN3CCOCC3)c(=O)[nH]c2c1=O)C(=O)C(F)(F)F (stereo not drawn)")
"interval 2"
>>> class_name("CCC(c1nc2ccsc2c(=O)n1Cc1ccc(C)cc1)N(CCCN)C(=O)c1ccc(C)cc1 (stereo not drawn)")
"interval 2"
>>> class_name("O=C(Nc1ccccc1Cl)c1cc[nH]n1")
"interval 2"
>>> class_name("CN(CCNC[C@H](O)c1ccc(O)c2[nH]c(=O)sc12)C(=O)CCOCCc1ccccc1")
"interval 2"
>>> class_name("CO[C@@H]1CN(CCn2c(=O)ccc3ccc(C#N)cc32)CC[C@H]1NCc1ccc2c(n1)NC(=O)CO2")
"interval 1"
>>> class_name("COc1cc(C(=O)NS(=O)(=O)c2ccccc2)ccc1Cn1ncc2ccc(NC(=O)OC3CCCC3)cc21")
"interval 2"
>>> class_name("C[C@H](NC(=O)/C=C/c1ccccc1)c1cccc(N2CCOCC2)c1")
"interval 3"
>>> class_name("Cc1ccc(-c2cn(C)cn2)cc1NC(=O)c1ccc(OCc2ccccn2)cc1")
"interval 2"
>>> class_name("Cc1ncc(-c2ccnc(Nc3ccc(F)cc3)n2)n1C(C)C")
"interval 3"
